System: broad panel of different clinical isolates
Assay: microbe, parasite or virus in culture
Type: cell-based
Conditions: Klebsiella pneumoniae, K. pneumoniae HAV#409; ESBL-producing
measurementKind: MIC

Worked cases, answers included:
CC(=O)NC[C@H]1CN(c2ccc(N3CCOCC3)c(F)c2)C(=O)O1 [Linezolid] = 64 µg/mL
CN[C@H](CC(C)C)C(=O)N[C@H]1C(=O)N[C@@H](CC(N)=O)C(=O)N[C@H]2C(=O)N[C@H]3C(=O)N[C@H](C(=O)N[C@H](C(=O)O)c4cc(O)cc(O)c4-c4cc3ccc4O)[C@H](O)c3ccc(c(Cl)c3)Oc3cc2cc(c3O[C@@H]2O[C@H](CO)[C@@H](O)[C@H](O)[C@H]2O[C@H]2C[C@](C)(N)[C@H](O)[C@H](C)O2)Oc2ccc(cc2Cl)[C@H]1O [Vancomycin] = > 128 µg/mL
CO/N=C(\C(=O)N[C@@H]1C(=O)N2C(C(=O)O)=C(CSc3nc(=O)c(=O)[nH]n3C)CS[C@H]12)c1csc(N)n1 [Ceftriaxone] = 128 µg/mL
C[C@H]1c2cccc(O)c2C(=O)C2=C(O)[C@]3(O)C(=O)C(C(N)=O)=C(O)[C@@H](N(C)C)[C@@H]3[C@@H](O)[C@@H]21 [Doxycycline] = 16 µg/mL
CSC1O[C@H]([C@H](NC(=O)[C@H]2NC[C@@H]3C[C@H](CC(C)C)CCO[C@H]32)[C@H](C)Cl)C(O)[C@@H](O)[C@H]1O (stereo partly shown) [FSA-513018b] = 16 µg/mL

Exam item: Recorded MIC of CCC[C@@H]1C[C@@H](C(=O)N[C@@H]([C@H]2O[C@H](SC)[C@H](O)[C@@H](O)[C@H]2O)[C@H](C)Cl)N(C)C1 [Clindamycin, clindamycin, reference compound] , please.
Marked response: > 128 µg/mL

Exam item: Recorded MIC of C[C@H]1COc2c(N3CCN(C)CC3)c(F)cc3c(=O)c(C(=O)O)cn1c23 [Levofloxacin] , please.
Marked response: 0.5 µg/mL

---

Measured MIC by item
System: broad panel of different clinical isolates
Test: microbe, parasite or virus in culture
Type: cell-based
Conditions: Acinetobacter baumannii, A. baumannii HAV#651; Clinical
Just the number in µg/mL, nothing appended.

Worked cases, answers included:
CC(=O)NC[C@H]1CN(c2ccc(N3CCOCC3)c(F)c2)C(=O)O1 [Linezolid] = 16
CSC1O[C@H]([C@H](NC(=O)[C@H]2NC[C@@H]3C[C@H](CC(C)C)CCO[C@H]32)[C@H](C)Cl)C(O)[C@@H](O)[C@H]1O (stereo partly shown) [FSA-513018b] = 4
CCC[C@@H]1C[C@@H](C(=O)N[C@@H]([C@H]2O[C@H](SC)[C@H](O)[C@@H](O)[C@H]2O)[C@H](C)Cl)N(C)C1 [Clindamycin, clindamycin, reference compound] = 128
CN[C@H](CC(C)C)C(=O)N[C@H]1C(=O)N[C@@H](CC(N)=O)C(=O)N[C@H]2C(=O)N[C@H]3C(=O)N[C@H](C(=O)N[C@H](C(=O)O)c4cc(O)cc(O)c4-c4cc3ccc4O)[C@H](O)c3ccc(c(Cl)c3)Oc3cc2cc(c3O[C@@H]2O[C@H](CO)[C@@H](O)[C@H](O)[C@H]2O[C@H]2C[C@](C)(N)[C@H](O)[C@H](C)O2)Oc2ccc(cc2Cl)[C@H]1O [Vancomycin] = 128
C[C@H]1c2cccc(O)c2C(=O)C2=C(O)[C@]3(O)C(=O)C(C(N)=O)=C(O)[C@@H](N(C)C)[C@@H]3[C@@H](O)[C@@H]21 [Doxycycline] = 0.125

Exam item: Recorded MIC of CO/N=C(\C(=O)N[C@@H]1C(=O)N2C(C(=O)O)=C(CSc3nc(=O)c(=O)[nH]n3C)CS[C@H]12)c1csc(N)n1 [Ceftriaxone] , please.
Marked response: 4

Exam item: Recorded MIC of C[C@H]1COc2c(N3CCN(C)CC3)c(F)cc3c(=O)c(C(=O)O)cn1c23 [Levofloxacin] , please.
Marked response: 0.125
